Target Or System: T1, Human IL13Rα2 (human, UniProt Q14627 27-343, limits assumed)
T1 construct: also called human recombinant IL13Rα2; Human IL13Ra2
T1 sequence (looked up): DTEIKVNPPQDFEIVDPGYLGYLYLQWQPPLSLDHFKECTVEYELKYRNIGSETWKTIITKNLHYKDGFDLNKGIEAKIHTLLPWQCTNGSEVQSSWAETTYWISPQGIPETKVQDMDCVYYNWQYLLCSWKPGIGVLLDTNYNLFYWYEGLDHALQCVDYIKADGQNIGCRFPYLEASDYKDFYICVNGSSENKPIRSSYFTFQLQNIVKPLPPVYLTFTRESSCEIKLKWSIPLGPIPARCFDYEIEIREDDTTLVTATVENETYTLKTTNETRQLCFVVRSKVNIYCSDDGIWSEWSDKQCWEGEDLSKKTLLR
Assay Protocol: SPR Biacore 8K affinity ranking, antibody supernatant Fc-captured, 100 nM IL13Rα2 analyte
I'd be grateful if you could share measured pKd for these entries.
In plain terms, pKd is the concentration in mol/L turned into minus its base-10 logarithm.

Problem: Look up pKd: Humanized antibody VH3 + VL3 (antibody, human IgG1, kappa, V domains shown) VH: QVQLVQSGAEVKKPGASVKVSCKASGYTFSNYLMNWVRQAPGQGLEWMGRIDPYDGDIDYNQNFKDRVTMTRDTSTSTVYMELSSLRSEDTAVYYCARGYGTAYGVDYWGQGTLVTVSS VL: EIVLTQSPATLSLSPGERATLSCRASESVDNYGISFMNWYQQKPGQAPRLLIYAASRQGSGIPARFSGSGSGTDFTLTISSLEPEDFAVYYCQQSKEVPWTFGGGTKLEIKR
Solution: 8.95

Problem: Now this one: Humanized antibody VH4 + VL1 (antibody, human IgG1, kappa, V domains shown) VH: QVQLVQSGAEVKKPGASVKVSCKASGYTFSNYLMNWVRQATGQGLEWMGRIDPYDGDIDYNQNFKDRVTITRNTSISTAYMELSSLRSEDTAVYYCARGYGTAYGVDYWGQGTLVTVSS VL: DIVMTQSPDSLAVSLGERATINCRASESVDNYGISFMNWYQQKPGQPPKLLIYAASRQGSGVPDRFSGSGSGTDFTLTISSLQAEDVAVYYCQQSKEVPWTFGGGTKLEIKR
Solution: 9.14

Problem: Now consider Humanized antibody VH2 + VL2 (antibody, human IgG1, kappa, V domains shown) VH: QVQLVQSGAEVKKPGASVKVSCKASGYTFSNYLMNWVRQAPGQRLEWMGRIDPYDGDIDYNQNFKDRVTITRDTSASTAYMELSSLRSEDTAVYYCARGYGTAYGVDYWGQGTLVTVSS VL: DIQMTQSPSSLSASVGDRVTITCRASESVDNYGISFMNWYQQKPGKAPKLLIYAASRQGSGVPSRFSGSGSGTDFTLTISSLQPEDFATYYCQQSKEVPWTFGGGTKLEIKR .
Solution: 9.07

Problem: Would you mind doing Humanized antibody VH2 + VL1 (antibody, human IgG1, kappa, V domains shown) VH: QVQLVQSGAEVKKPGASVKVSCKASGYTFSNYLMNWVRQAPGQRLEWMGRIDPYDGDIDYNQNFKDRVTITRDTSASTAYMELSSLRSEDTAVYYCARGYGTAYGVDYWGQGTLVTVSS VL: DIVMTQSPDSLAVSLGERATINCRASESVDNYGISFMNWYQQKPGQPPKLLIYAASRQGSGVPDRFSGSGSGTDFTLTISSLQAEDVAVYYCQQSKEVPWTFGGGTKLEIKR as well?
Solution: 9.15

Problem: Also need Humanized antibody VH1 + VL4 (antibody, human IgG1, kappa, V domains shown, also called U3621EI120 VH1+VL4) VH: QVQLVQSGAEVKKPGSSVKVSCKASGYTFSNYLMNWVRQAPGQGLEWMGRIDPYDGDIDYNQNFKDRVTITADKSTSTAYMELSSLRSEDTAVYYCARGYGTAYGVDYWGQGTLVTVSS VL: EIVMTQSPATLSVSPGERATLSCRASESVDNYGISFMNWYQQKPGQAPRLLIYAASRQGSGIPARFSGSGSGTEFTLTISSLQSEDFAVYYCQQSKEVPWTFGGGTKLEIKR , thanks.
Solution: 9.22

Problem: Follow-up entry: Humanized antibody VH1 + VL1 (antibody, human IgG1, kappa, V domains shown, also called Humanized VH1-VL1; U3621EI120 VH1+VL1) VH: QVQLVQSGAEVKKPGSSVKVSCKASGYTFSNYLMNWVRQAPGQGLEWMGRIDPYDGDIDYNQNFKDRVTITADKSTSTAYMELSSLRSEDTAVYYCARGYGTAYGVDYWGQGTLVTVSS VL: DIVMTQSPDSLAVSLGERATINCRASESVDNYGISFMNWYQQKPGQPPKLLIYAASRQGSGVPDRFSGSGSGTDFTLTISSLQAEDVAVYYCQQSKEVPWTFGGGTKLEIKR
Solution: 9.11

Problem: Follow-up entry: Humanized antibody VH2 + VL3 (antibody, human IgG1, kappa, V domains shown, also called U3621EI120 VH2+VL3) VH: QVQLVQSGAEVKKPGASVKVSCKASGYTFSNYLMNWVRQAPGQRLEWMGRIDPYDGDIDYNQNFKDRVTITRDTSASTAYMELSSLRSEDTAVYYCARGYGTAYGVDYWGQGTLVTVSS VL: EIVLTQSPATLSLSPGERATLSCRASESVDNYGISFMNWYQQKPGQAPRLLIYAASRQGSGIPARFSGSGSGTDFTLTISSLEPEDFAVYYCQQSKEVPWTFGGGTKLEIKR
Solution: 8.93

Problem: For Humanized antibody VH1 + VL2 (antibody, human IgG1, kappa, V domains shown) VH: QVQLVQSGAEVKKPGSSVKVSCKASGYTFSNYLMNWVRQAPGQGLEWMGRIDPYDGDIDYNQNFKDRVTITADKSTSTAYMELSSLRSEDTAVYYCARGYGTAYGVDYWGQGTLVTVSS VL: DIQMTQSPSSLSASVGDRVTITCRASESVDNYGISFMNWYQQKPGKAPKLLIYAASRQGSGVPSRFSGSGSGTDFTLTISSLQPEDFATYYCQQSKEVPWTFGGGTKLEIKR then?
Solution: 9.12

Problem: Then this binder: Humanized antibody VH2 + VL4 (antibody, human IgG1, kappa, V domains shown) VH: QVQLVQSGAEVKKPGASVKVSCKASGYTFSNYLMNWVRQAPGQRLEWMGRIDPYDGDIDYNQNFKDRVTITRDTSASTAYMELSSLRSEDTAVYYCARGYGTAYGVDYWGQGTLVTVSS VL: EIVMTQSPATLSVSPGERATLSCRASESVDNYGISFMNWYQQKPGQAPRLLIYAASRQGSGIPARFSGSGSGTEFTLTISSLQSEDFAVYYCQQSKEVPWTFGGGTKLEIKR
Solution: 8.87

Problem: Entry to check: Humanized antibody VH4 + VL4 (antibody, human IgG1, kappa, V domains shown) VH: QVQLVQSGAEVKKPGASVKVSCKASGYTFSNYLMNWVRQATGQGLEWMGRIDPYDGDIDYNQNFKDRVTITRNTSISTAYMELSSLRSEDTAVYYCARGYGTAYGVDYWGQGTLVTVSS VL: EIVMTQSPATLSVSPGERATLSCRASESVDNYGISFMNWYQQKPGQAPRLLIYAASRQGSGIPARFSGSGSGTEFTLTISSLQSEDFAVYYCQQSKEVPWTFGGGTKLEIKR
Solution: 9.23
